conditions: 308.5 K; 101.33 kPa; Liquid
MEASUREMENT NAME: mass density (kg/m3)

>  <SMILES RECORD>
COCCOC

>  <mass density / kg/m3>
850.28

$$$$
>  <SMILES RECORD>
OCCOCCOCCO

>  <mass density / kg/m3>
1112.59

$$$$
>  <SMILES RECORD>
CCOCCOCC

>  <mass density / kg/m3>
826.22

$$$$
>  <SMILES RECORD>
OCc1ccccc1

>  <mass density / kg/m3>
1033.64

$$$$
>  <SMILES RECORD>
CCOCCOCCOCC

>  <mass density / kg/m3>
893.08

$$$$
>  <SMILES RECORD>
OCCOCCO

>  <mass density / kg/m3>
1105.86

$$$$
>  <SMILES RECORD>
CCOCCOCCOCCO

>  <mass density / kg/m3>
1008.8

$$$$
>  <SMILES RECORD>
CCOCCO

>  <mass density / kg/m3>
916

$$$$
>  <SMILES RECORD>
CCOCCOCCO

>  <mass density / kg/m3>
974.67

$$$$
